Test system: LOC_OS03G12390-cb001
Method Notes: thermal shift delta Tm vs DMSO control; higher = stronger stabilization (binding);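 further: purified Escherichia coli-expressed rice kinase domain construct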
Settings: 12.5 µM; protein concentration 2 µM
So basically: thermal shift delta Tm at 0.2 °C or higher? That is y. Lower than 0.2 °C? That is n.

Example results:
{"Molecule": "Cc1cc(NC(=O)c2cccc(NC(=O)/C=C/CN(C)C)c2)ccc1Nc1nccc(-c2cccnc2)n1", "Measured Target": "LOC_OS03G12390-cb001", "Label Class": "y"}
{"Molecule": "CCc1cccc(CC)c1NC(=O)N1Cc2[nH]nc(NC(=O)c3ccc(N4CCN(C)CC4)cc3)c2C1", "Measured Target": "LOC_OS03G12390-cb001", "Label Class": "y"}
{"Molecule": "CNC(=O)c1cc(COc2nnc(Nc3ccc(Cl)cc3)c3ccoc23)ccn1", "Measured Target": "LOC_OS03G12390-cb001", "Label Class": "n"}

Would you say COc1cc2ncnc(Sc3nnc(C)s3)c2cc1OC shows thermal shift delta Tm at minimum 0.2 °C?
n

Would you say Cn1cc(C2=C(c3ccc(Cl)cc3Cl)C(=O)NC2=O)c2ccccc21 shows thermal shift delta Tm at minimum 0.2 °C?
y

Would you say CC(C)(C)S(=O)(=O)c1ccc2nccc(Nc3n[nH]c4ccc(F)cc34)c2c1 shows thermal shift delta Tm at minimum 0.2 °C?
y

Would you say N#Cc1cnc(Nc2cc(NC[C@H]3CNCCO3)c(C(F)(F)F)cn2)cn1 shows thermal shift delta Tm at minimum 0.2 °C?
y

Would you say C=CC(=O)Nc1ccc(CN2C(=O)N(c3cc(OC)cc(OC)c3)Cc3cnc(Nc4ccc(N5CCN(C)CC5)cc4)nc32)cc1 shows thermal shift delta Tm at minimum 0.2 °C?
n

Would you say Oc1ccc(-c2nc(-c3ccc(F)cc3)c(-c3ccncc3)[nH]2)cc1 shows thermal shift delta Tm at minimum 0.2 °C?
y

Would you say C=CC(=O)Nc1cccc(C)c1Nc1ncc2cc(-c3c(Cl)c(OC)cc(OC)c3Cl)ccc2n1 shows thermal shift delta Tm at minimum 0.2 °C?
n

Would you say Cc1cc(Nc2nc(N[C@@H](C)c3ncc(F)cn3)ncc2Cl)[nH]n1 shows thermal shift delta Tm at minimum 0.2 °C?
y

Would you say CCN1CCN(Cc2ccc(C(=O)Nc3ccc(C)c(Oc4ccc5c(c4)CC(=O)N5)c3)cc2C(F)(F)F)CC1 shows thermal shift delta Tm at minimum 0.2 °C?
n

Would you say N#C/C(=C\c1ccc(O)c(O)c1)C(=O)NCc1ccccc1 shows thermal shift delta Tm at minimum 0.2 °C?
n

Would you say COc1ccc(Oc2cc(NCCC(F)(F)F)c3ncc(-c4ccc(C(=O)NC5CC5)c(C)c4)n3n2)c(F)c1F shows thermal shift delta Tm at minimum 0.2 °C?
y

Would you say C=CC(=O)Nc1cccc(Sc2nc(Nc3ccc(N4CCN(C)CC4)cc3)ncc2Cl)c1 shows thermal shift delta Tm at minimum 0.2 °C?
y

Would you say OC1CCC(Nc2ncc3nc(Nc4c(F)cc(F)cc4F)n([C@H]4CCOC4)c3n2)CC1 (stereo partly specified) shows thermal shift delta Tm at minimum 0.2 °C?
y

Would you say Cc1ccc2nc(NCCN)c3ncc(C)n3c2c1 shows thermal shift delta Tm at minimum 0.2 °C?
n

###

Tested on: LOC_OS04G38480-cb003
Sequence (whole entry): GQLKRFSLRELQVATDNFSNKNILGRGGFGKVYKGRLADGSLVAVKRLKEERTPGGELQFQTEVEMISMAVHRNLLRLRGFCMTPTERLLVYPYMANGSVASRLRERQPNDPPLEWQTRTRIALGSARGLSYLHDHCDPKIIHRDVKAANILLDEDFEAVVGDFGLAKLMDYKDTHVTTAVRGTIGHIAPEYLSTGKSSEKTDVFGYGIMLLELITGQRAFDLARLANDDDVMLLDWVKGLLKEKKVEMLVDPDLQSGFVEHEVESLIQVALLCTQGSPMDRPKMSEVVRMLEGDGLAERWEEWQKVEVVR
Method Notes: thermal shift delta Tm vs DMSO control; higher = stronger stabilization (binding)
Settings: 12.5 µM; protein concentration 2 µM
Attribute: thermal shift delta Tm
Give the quantity in °C, number only.

{"Molecule": "COc1cccc2cc(-c3nc([C@H]4CC[C@H](C(=O)O)CC4)n4ncnc(N)c34)[nH]c12", "Unit Label": "°C", "thermal shift delta Tm": 0.98}
{"Molecule": "CC(C)(C)NS(=O)(=O)c1cncc(-c2cc(F)c3nc(N)nn3c2)c1", "Unit Label": "°C", "thermal shift delta Tm": 0.98}

Short answer for Cc1cc(Nc2ncc(Cl)c(Nc3ccccc3S(=O)(=O)C(C)C)n2)c(OC(C)C)cc1C1CCNCC1 [Ceritinib (LDK378)] : thermal shift delta Tm was 1

Where these numbers come from: the supplement of paper PMC9694430
